- target_or_system: human 5-HT4(a) (Homo sapiens, UniProt Q13639)
- Sequence (Q13639 1-387 isoform Q13639-2): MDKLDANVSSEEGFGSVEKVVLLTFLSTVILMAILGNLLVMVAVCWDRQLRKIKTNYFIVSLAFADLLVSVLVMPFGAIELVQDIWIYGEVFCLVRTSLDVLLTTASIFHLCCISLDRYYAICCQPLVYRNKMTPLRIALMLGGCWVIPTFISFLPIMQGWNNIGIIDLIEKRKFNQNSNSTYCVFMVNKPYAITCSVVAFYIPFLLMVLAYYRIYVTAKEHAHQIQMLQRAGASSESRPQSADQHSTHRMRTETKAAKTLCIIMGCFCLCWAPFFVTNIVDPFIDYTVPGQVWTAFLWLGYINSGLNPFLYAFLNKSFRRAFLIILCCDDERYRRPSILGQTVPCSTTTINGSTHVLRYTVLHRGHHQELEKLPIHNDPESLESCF
- procedure_details: Evaluation of agonistic activity in CHO-K1 cells expressing human 5-HT4(a) (GeneBlAzer HTR4-CRE-bla CHO-K1, beta-lactamase reporter)
- details: CHO-K1 cells stably expressing human 5-HT4(a)
Structures can show the parent of a compound that is named as a salt.
measured_quantity: EC50 (nM)

# count of solved cases: 5
CCCc1cc(N2CC[C@H](NC(C)C)C2)nc(Nc2ccc(C)c(C#N)c2)n1; 0.0022
CCCc1cc(N2CC[C@H](NC(C)=O)C2)nc(Nc2ccc(C)c(OC)c2)n1; 0.078
CCCc1cc(N2CC[C@H](NC(C)C(C)(C)O)C2)nc(Nc2cccc(C#N)c2)n1 (stereo partly shown); 0.091
CCCc1cc(N2CCC[C@H]2C)nc(Nc2ccc(C)c(C#N)c2)n1; 0.028
CCCCc1cc(N2CC[C@H](NC(C)=O)C2)nc(Nc2ccc(N)c(C(F)(F)F)c2)n1; 0.0095

[1] CCCc1cc(N2CC[C@H](NCC3CC3)C2)nc(Nc2cccc(SC)c2)n1
[2] CCCc1cc(N2CC[C@H](NCC3CC3)C2)nc(Nc2ccc(F)c(C#N)c2)n1
Which entry has a larger number for EC50, 1 or 2 ? Response format: the label of the selected entry.
1

[P] CCCc1cc(N2CC[C@H](NCC)C2)nc(Nc2ccc(N)c([N+](=O)[O-])c2)n1 [Example 177]
[Q] CCCc1cc(N2CCC[C@H]2COC)nc(Nc2ccc3c(c2)NCC3)n1
Lab note: check whether P or Q has the lower measured EC50. Response format: the label of the selected entry.
P

[P] CCCc1cc(N2CC[C@H](NC3CCN(C(C)=O)CC3)C2)nc(Nc2cccc(C#N)c2)n1
[Q] CCCc1cc(N2CC[C@H](NC(=O)Cc3cccs3)C2)nc(Nc2cccc(C#N)c2)n1
[R] CCCCc1cc(N2CC[C@H](NCC)C2)nc(Nc2ccc(Cl)c(N)c2)n1
[S] CCCCc1cc(N2CC[C@H](NC)C2)nc(Nc2ccc(N)c(C(F)(F)F)c2)n1
Rank by EC50 (largest to smallest). Please reply with the labels ordered as requested. Many thanks.
Q, P, R, S

[1] CCCc1cc(N2CC[C@H](NC(C)=O)C2)nc(Nc2cccc(C(F)(F)F)c2)n1
[2] CCCc1cc(N2CCC(NCC)C2)nc(Nc2ccc(C)c(C#N)c2)n1 (stereo not shown)
Which entry has a larger number for EC50, 1 or 2 ? Response format: the label of the selected entry.
1

[a] CCCCc1cc(N2CC[C@H](NC(C)C)C2)nc(Nc2cccc(C#N)c2)n1
[b] CCCc1cc(N2CC[C@H](NC3CCCCCCC3)C2)nc(Nc2cccc(C#N)c2)n1
Which entry has a larger number for EC50, a or b ? Response format: the label of the selected entry.
b

[a] CCCCc1cc(N2CC[C@H](N)C2)nc(Nc2cccc(C#N)c2)n1 [Example 233, dihydrochloride]
[b] CCCc1cc(N2CC[C@H](NC(CC(C)C)CC(C)C)C2)nc(Nc2cccc(C#N)c2)n1
[c] CCCc1cc(N2CC[C@H](NC(=O)CC)C2)nc(Nc2cccc(C#N)c2)n1
[d] CCCCc1cc(N2CC[C@H](NCC)C2)nc(Nc2ccc(F)c(C#N)c2)n1
Rank by EC50 (largest to smallest). Please reply with the labels ordered as requested. Many thanks.
b, c, a, d

[1] CCCc1cc(N2CCC[C@H]2CO)nc(Nc2ccc(N)c(C#N)c2)n1
[2] CCCc1cc(N2CC[C@H](NC(=O)C3CCCC3)C2)nc(Nc2cccc(C#N)c2)n1
Lab note: check whether 1 or 2 has the lower measured EC50. Response format: the label of the selected entry.
1
(1: 0.018 nM, 2: 0.36 nM)

[I] CCCc1cc(N2CC[C@H](NC(=O)Cc3ccncc3)C2)nc(Nc2ccc(C)c(C#N)c2)n1
[II] CCCc1cc(N2CCC[C@H]2C=O)nc(Nc2cccc(C#N)c2)n1
[III] CCCc1cc(N2CC[C@H](NC)C2)nc(Nc2cc(N)cc(C#N)c2)n1
[IV] CCCc1cc(N2CC[C@H](NCc3ccc(O)cc3)C2)nc(Nc2cccc(C#N)c2)n1
Arrange these 4 molecules in increasing order of EC50. Please reply with the labels ordered as requested. Many thanks.
III, IV, I, II
(III: 0.0024 nM, IV: 0.014 nM, I: 0.025 nM, II: 0.236 nM)

Data provenance is patent US9890138B2.
